Hey, just so you know, these numbers are from ChEMBL document CHEMBL1201862.

Tested on: M14
Test: NCI tumour cell line growth inhibition, 48 h
Calls of active or inactive are those of the source. Rule as the data show it: active = GI50 up to about 1.1 µM and inactive = higher.
Answer with one of the outcomes given here: active, inactive

Compound | Answer label
N=C(NNS(=O)(=O)c1ccccc1)Oc1ccc(Br)cc1Br | inactive
CNC(=O)NCCCCC(NC(=O)OCc1ccccc1)C(=O)OCc1ccccc1 (centres undefined) | inactive
Cc1ccc(NCCO)cc1 | inactive
CCOC(=O)c1cn(CC)c2ccc3ccsc3c2c1=O | inactive
CC1OC(c2ccccc2)=CC(OCc2ccccc2)[C@H]1OCc1ccccc1 (some centres undefined) | inactive
COc1ccc2nc3cc(Cl)ccc3c(Nc3ccccc3-c3ccccc3Nc3c4ccc(Cl)cc4nc4ccc(OC)cc34)c2c1 | inactive
CC(=O)c1cccc(NC(=O)C(=O)c2c(O)oc3ccccc3c2=O)c1 | inactive
CN(C)CCSc1nccc(-c2cc3ccccc3s2)n1 | inactive
CC(=O)[C@@]1(O)CC[C@H]2[C@@H]3C[C@H](C)C4=CC(=O)CC[C@]4(C)[C@H]3[C@@H](O)C[C@@]21C | inactive
O=C(Nc1nc2ccccc2s1)c1cc([N+](=O)[O-])ccc1Cl | inactive

Q: Call for entry COc1ccc(/C=C2/C(=O)C(c3ccccc3)N(c3ccccc3)C2=O)cc1OC (centres undefined) :
A: inactive

Q: Call for entry `CC(=O)Nc1c(C)ccc2c1C(=O)c1ccccc1C2=O` :
A: inactive

Q: Call for entry `Cc1nc(Nc2ccccc2)sc1C(=O)CC(=O)C(=O)NC12CC3CC(CC(C3)C1)C2` :
A: inactive

Q: Call for entry `CSc1nsc(-c2ccccc2)[s+]1.[O-][Cl+3]([O-])([O-])[O-]` :
A: inactive

Q: Call for entry `CN(C)c1n2c3cc([N+](=O)[O-])ccc3[n+]3c(N(C)C)n4ccccc4c3c2c2cccc[n+]12.[O-][Cl+3]([O-])([O-])[O-].[O-][Cl+3]([O-])([O-])[O-]` :
A: inactive

Q: Call for entry `NCCNc1cccc2ccccc12` :
A: inactive

Q: Call for entry `O=C1CSC(/C(=C\c2ccc(Cl)cc2)c2nc3ccccc3[nH]2)=N1` :
A: inactive

Q: Call for entry `C(=C\c1ccccc1)/Cn1nc(-c2ccccc2)nc1-c1cnccn1` :
A: inactive

Q: Call for entry COc1cccc(NC(=O)/C(CC(=O)CC(c2ccccc2)c2c(O)c3ccccc3oc2=O)=N\NC(C)(C)C)c1OC (centres undefined) :
A: inactive

Q: Call for entry `Cn1c(=O)c2[nH]c(/N=N\n3ccc4ccccc43)nc2n(C)c1=O` :
A: inactive

Q: Call for entry `COc1ccc(C(=O)/C=C2\c3ccccc3C(=O)N2C)cc1` :
A: inactive

* * *

Test system: HCT-15
Parameter measured: GI50 (µM)
Give a bare numeral; the unit µM is implied.

Answered cases to consult:
Compound | Study system | Number
O=C1C=CC(=O)c2c(NCC3CC3)ccc(NCC3CC3)c21 | HCT-15 | 13.3
CC(C)=CCCC(C)CCOS(=O)C(F)(F)F (stereo unspecified) | HCT-15 | 2.49

Q: Determine reported GI50 for `N=C(N)NS(=O)(=O)c1ccc(NCc2cccc3c(=O)c4ccc(Cl)cc4oc23)cc1` ; test system: HCT-15.
A: 4.93

* * *

Test system: COLO 205
Assay: NCI tumour cell line growth inhibition, 48 h
Active and inactive are the calls of the source. Rule as the data show it: active = GI50 up to about 1.1 µM and inactive = higher.
Parameter measured: GI50

Answered cases to consult:
Compound | GI50
CC(=O)N1C(=O)/C(=C\C(=O)c2ccc([N+](=O)[O-])cc2)c2ccccc21 | 18.8 µM (inactive)
COc1cccc(NC(=O)/C(CC(=O)CC(c2ccccc2)c2c(O)c3ccccc3oc2=O)=N\NC(C)(C)C)c1OC (stereo not given) | > 100 µM (inactive)
CN(C)CCNC(=O)c1cccc2c(NC(CCC(N)=O)C(=O)O)c3ccccc3nc12 (stereo not given) | 4.8 µM (inactive)
O=C1N(Cl)C(=O)C(c2ccc(Cl)cc2)(c2ccc(Cl)cc2)N1Cl | 41.8 µM (inactive)
CCOC(=O)NC(C(F)(F)F)(C(F)(F)F)P(=O)(OCC(C)C)OCC(C)C | 10.2 µM (inactive)

Q: Determine reported GI50 for `CC1=C/C(=N/N2C(=O)/C(=C/c3ccc(Cl)cc3)N=C2c2ccccc2)CC(C)(C)C1` ; test system: COLO 205.
A: > 100 µM (inactive)

Q: Determine reported GI50 for `CCN(CC)c1nnc(CCCCCCCCc2nnc(N(CC)CC)o2)o1` ; test system: COLO 205.
A: > 100 µM (inactive)

Q: Determine reported GI50 for `Cc1ccc(NCCO)cc1` ; test system: COLO 205.
A: > 100 µM (inactive)

Q: Determine reported GI50 for `O=C1C(O)=C(C(CCc2ccccc2)C2=C(O)C(=O)c3ccccc3C2=O)C(=O)c2ccccc21` ; test system: COLO 205.
A: 28.4 µM (inactive)

Q: Determine reported GI50 for `[N-]=[N+]=NC12CC3C4CC5CC3C(C1)C(C5)C4C2` ; test system: COLO 205.
A: > 100 µM (inactive)
